protocol_description: Progesterone solubility study in different solvent systems
Assay type: physicochemical
condition_notes: oil or lipid, thermodynamic from solid; in LAUROGLYCOL FCC; room temperature, visual
assay_metric: solubility (mg/mL)
Just the number please, in mg/mL, no unit attached.

Query :: Quick check: solubility of CC(=O)[C@H]1CC[C@H]2[C@@H]3CCC4=CC(=O)CC[C@]4(C)[C@H]3CC[C@]12C [progesterone, pregn-4-ene-3,20-dione] ?
Result :: 60

###

protocol_description: Progesterone solubility study in different solvent systems
Type: physicochemical
condition_notes: organic solvent or mixture, thermodynamic from solid; in Dimethyl Isosorbide; room temperature, visual
assay_metric: solubility (mg/mL)
Just the number please, in mg/mL, no unit attached.

Query :: Quick check: solubility of CC(=O)[C@H]1CC[C@H]2[C@@H]3CCC4=CC(=O)CC[C@]4(C)[C@H]3CC[C@]12C [progesterone, pregn-4-ene-3,20-dione] ?
Result :: 92

Numbers sourced from patent US10098894B2.
